assay: Microsomal metabolic stability in human liver microsomes assessed as clearance; type: ADME, Microsome; conditions: read-out: CLH
quantity-kind: CLint scaled

INSERT INTO assay_data (molecule, observed_value) VALUES
  ('[2H]C([2H])([2H])NC1=NC(=O)[C@]2(CCc3ncccc32)c2cc(C(C)(F)F)ccc21', '< 9.3 mL/min/kg'),
  ('[2H]C([2H])([2H])NC1=NC(=O)[C@]2(CCc3ncccc32)c2cc(C3CC3)ccc21', '11.2 mL/min/kg'),
  ('CNC1=NC(=O)C2(CCc3ncccc32)c2cc(C3CC3)ccc21 (centres undefined)', '12.3 mL/min/kg'),
  ('[2H]C([2H])([2H])NC1=NC(=O)[C@]2(CCc3ncccc32)c2cc(C(C)(F)F)c(F)cc21', '< 9.3 mL/min/kg'),
  ('O=C1N=C(NCC(F)(F)F)c2ccc(C(F)(F)F)cc2C12CCc1ncccc12 (racemic)', '< 9.3 mL/min/kg'),
  ('CNC1=NC(=O)C2(CCCc3ccccc32)c2nc(C(F)(F)F)ccc21 (centres undefined)', '24.1 mL/min/kg'),
  ('CNC1=NC(=O)C2(CCc3c(C#N)cccc32)c2nc(C(F)(F)F)ccc21 (centres undefined)', '< 9.3 mL/min/kg'),
  ('CNC1=NC(=O)C2(CCc3ncccc32)c2cc(C3CC3)c(F)cc21 (centres undefined)', '< 9.3 mL/min/kg'),
  ('[2H]C([2H])([2H])NC1=NC(=O)C2(CCc3ncccc32)c2cc(C(F)(F)F)ccc21 (racemic)', '< 9.3 mL/min/kg');
